test system: 379773-124-R-J2-PDC complex spheroids, viability % test/control; assay: Anticancer human tumor 379773-124-R-J2-PDC patient-derived endometrial carcinoma cell line growth inhibition [CLK]; details: second compound 0.0316 µM; first compound 0.0316 µM; active = viability on the fitted dose curve at most 10% of control; inactive = the rest
Classes used: active, inactive

compound="CC(Nc1ccc2c(c1)OCCn1cc(N3C(=O)OCC3C(F)F)nc1-2)C(N)=O (centres undefined) + CNC(=O)c1ccc(Nc2nc(OC3CCCC3)c3c(-c4ccc5nc(C)oc5c4)c[nH]c3n2)c(OC)c1" answer_label=inactive
compound="CCN1CCN(Cc2ccc(Nc3ncc(F)c(-c4cc(F)c5nc(C)n(C(C)C)c5c4)n3)nc2)CC1 + CN1CCN(c2cc(C(=O)Nc3cc4cc(-c5cnn(C)c5)ccc4cn3)ccn2)CC1" answer_label=inactive
compound="C=CC(=O)N1CCN(c2nc(=O)n(-c3c(C)ccnc3C(C)C)c3nc(-c4c(O)cccc4F)c(F)cc23)C(C)C1 (centres undefined) + CN1CCN(c2cc(C(=O)Nc3cc4cc(-c5cnn(C)c5)ccc4cn3)ccn2)CC1" answer_label=inactive
compound="Nc1ccccc1NC(=O)c1ccc(CNC(=O)OCc2cccnc2)cc1 + CN1CCN(c2cc(C(=O)Nc3cc4cc(-c5cnn(C)c5)ccc4cn3)ccn2)CC1" answer_label=inactive
compound="COc1ccc([C@@H](O)c2cc(-c3ncnc4cc(N5CCOCC5)ccc34)c(F)cc2Cl)nn1 + CN1CCN(c2cc(C(=O)Nc3cc4cc(-c5cnn(C)c5)ccc4cn3)ccn2)CC1" answer_label=inactive
compound="COc1c(OCCCN2CCOCC2)ccc2c3n(c(=NC(=O)c4cnc(N)nc4)nc12)CCN3 + CNC(=O)c1ccc(Nc2nc(OC3CCCC3)c3c(-c4ccc5nc(C)oc5c4)c[nH]c3n2)c(OC)c1" answer_label=inactive
compound="CC(=O)O[C@H]1C(=O)[C@@]2(C)[C@H]([C@H](OC(=O)c3ccccc3)[C@]3(O)C[C@H](OC(=O)[C@H](O)[C@@H](NC(=O)c4ccccc4)c4ccccc4)C(C)=C1C3(C)C)[C@]1(OC(C)=O)CO[C@@H]1C[C@@H]2O + CNC(=O)c1ccc(Nc2nc(OC3CCCC3)c3c(-c4ccc5nc(C)oc5c4)c[nH]c3n2)c(OC)c1" answer_label=inactive
compound="Cn1ncnc1[C@H]1c2n[nH]c(=O)c3cc(F)cc(c23)N[C@@H]1c1ccc(F)cc1 + CN1CCN(c2cc(C(=O)Nc3cc4cc(-c5cnn(C)c5)ccc4cn3)ccn2)CC1" answer_label=inactive
compound="O=C(c1cc(Cc2n[nH]c(=O)c3ccccc23)ccc1F)N1CCN(C(=O)C2CC2)CC1 + CN1CCN(c2cc(C(=O)Nc3cc4cc(-c5cnn(C)c5)ccc4cn3)ccn2)CC1" answer_label=inactive
compound="COC1C=CCC(C)C(C)S(=O)(=O)NC(=O)c2ccc3c(c2)N(CC2CCC21)CC1(CCCc2cc(Cl)ccc21)CO3 (centres undefined) + CNC(=O)c1ccc(Nc2nc(OC3CCCC3)c3c(-c4ccc5nc(C)oc5c4)c[nH]c3n2)c(OC)c1" answer_label=inactive
compound="CC1COCCN1c1cc(C2(S(C)(=N)=O)CC2)nc(-c2ccnc3[nH]ccc23)n1 (centres undefined) + CN1CCN(c2cc(C(=O)Nc3cc4cc(-c5cnn(C)c5)ccc4cn3)ccn2)CC1" answer_label=inactive
compound="CC1(C)CCC(CN2CCN(c3ccc(C(=O)NS(=O)(=O)c4ccc(NCC5CCOCC5)c([N+](=O)[O-])c4)c(Oc4cnc5[nH]ccc5c4)c3)CC2)=C(c2ccc(Cl)cc2)C1 + CNC(=O)c1ccc(Nc2nc(OC3CCCC3)c3c(-c4ccc5nc(C)oc5c4)c[nH]c3n2)c(OC)c1" answer_label=inactive
compound="CC(=O)O[C@H]1C(=O)[C@@]2(C)[C@H]([C@H](OC(=O)c3ccccc3)[C@]3(O)C[C@H](OC(=O)[C@H](O)[C@@H](NC(=O)c4ccccc4)c4ccccc4)C(C)=C1C3(C)C)[C@]1(OC(C)=O)CO[C@@H]1C[C@@H]2O + CN1CCN(c2cc(C(=O)Nc3cc4cc(-c5cnn(C)c5)ccc4cn3)ccn2)CC1" answer_label=active
compound="O=C(c1cc(Cc2n[nH]c(=O)c3ccccc23)ccc1F)N1CCN(C(=O)C2CC2)CC1 + CNC(=O)c1ccc(Nc2nc(OC3CCCC3)c3c(-c4ccc5nc(C)oc5c4)c[nH]c3n2)c(OC)c1" answer_label=inactive
compound="C#Cc1c(F)ccc2cc(O)cc(-c3ncc4c(N5CC6CCC(C5)N6)nc(OCC56CCCN5CC(F)C6)nc4c3F)c12 (centres undefined) + CNC(=O)c1ccc(Nc2nc(OC3CCCC3)c3c(-c4ccc5nc(C)oc5c4)c[nH]c3n2)c(OC)c1" answer_label=inactive
compound="COc1c(OCCCN2CCOCC2)ccc2c3n(c(=NC(=O)c4cnc(N)nc4)nc12)CCN3 + CN1CCN(c2cc(C(=O)Nc3cc4cc(-c5cnn(C)c5)ccc4cn3)ccn2)CC1" answer_label=inactive
compound="C=C(F)C(=O)N1CCN(c2nc(OCC3CCCN3C)nc3c2CCN(c2cccc4cccc(Cl)c24)C3)CC1CC#N (centres undefined) + CN1CCN(c2cc(C(=O)Nc3cc4cc(-c5cnn(C)c5)ccc4cn3)ccn2)CC1" answer_label=inactive
compound="C=C(F)C(=O)N1CCN(c2nc(OCC3CCCN3C)nc3c2CCN(c2cccc4cccc(Cl)c24)C3)CC1CC#N (centres undefined) + CNC(=O)c1ccc(Nc2nc(OC3CCCC3)c3c(-c4ccc5nc(C)oc5c4)c[nH]c3n2)c(OC)c1" answer_label=inactive
compound="Nc1ccccc1NC(=O)c1ccc(CNC(=O)OCc2cccnc2)cc1 + CNC(=O)c1ccc(Nc2nc(OC3CCCC3)c3c(-c4ccc5nc(C)oc5c4)c[nH]c3n2)c(OC)c1" answer_label=inactive

----------
tested on: 379773-124-R-J2-PDC complex spheroids, viability % test/control; test: Anticancer human tumor 379773-124-R-J2-PDC cell line growth inhibition [CLK]; conditions: second compound 0.316 µM; first compound 10 µM; active = viability on the fitted dose curve at most 10% of control; inactive = the rest;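 also: compound exposure lasted seven days before the viability readout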
Outcomes: active, inactive

molecule="CC1COCCN1c1cc(C2(S(C)(=N)=O)CC2)nc(-c2ccnc3[nH]ccc23)n1 (centres undefined) + CNC(=O)c1ccc(Nc2nc(OC3CCCC3)c3c(-c4ccc5nc(C)oc5c4)c[nH]c3n2)c(OC)c1" answer_label=inactive
molecule="Nc1ccccc1NC(=O)c1ccc(CNC(=O)OCc2cccnc2)cc1 + CNC(=O)c1ccc(Nc2nc(OC3CCCC3)c3c(-c4ccc5nc(C)oc5c4)c[nH]c3n2)c(OC)c1" answer_label=active
molecule="O=C(c1cc(Cc2n[nH]c(=O)c3ccccc23)ccc1F)N1CCN(C(=O)C2CC2)CC1 + CN1CCN(c2cc(C(=O)Nc3cc4cc(-c5cnn(C)c5)ccc4cn3)ccn2)CC1" answer_label=inactive
molecule="CC1(C)CCC(CN2CCN(c3ccc(C(=O)NS(=O)(=O)c4ccc(NCC5CCOCC5)c([N+](=O)[O-])c4)c(Oc4cnc5[nH]ccc5c4)c3)CC2)=C(c2ccc(Cl)cc2)C1 + CN1CCN(c2cc(C(=O)Nc3cc4cc(-c5cnn(C)c5)ccc4cn3)ccn2)CC1" answer_label=inactive

----------
system: 379773-124-R-J2-PDC complex spheroids, viability % test/control; assay: Anticancer human tumor 379773-124-R-J2-PDC cell line growth inhibition [CLK]; conditions: curve of first compound; second compound 0.1 µM;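 also: compound exposure lasted seven days before the viability readout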
pIC50: −log10 of the molar value.
pIC50 overview
quantity.kind: pIC50

compound="C#Cc1c(F)ccc2cc(O)cc(-c3ncc4c(N5CC6CCC(C5)N6)nc(OCC56CCCN5CC(F)C6)nc4c3F)c12 (stereo unspecified) + CN1CCN(c2cc(C(=O)Nc3cc4cc(-c5cnn(C)c5)ccc4cn3)ccn2)CC1" obs_value="< 5.00"
compound="CCc1c2c(nc3ccc(O)cc13)-c1cc3c(c(=O)n1C2)COC(=O)[C@]3(O)CC + CNC(=O)c1ccc(Nc2nc(OC3CCCC3)c3c(-c4ccc5nc(C)oc5c4)c[nH]c3n2)c(OC)c1" obs_value="> 8.50"
compound="COc1c(OCCCN2CCOCC2)ccc2c3n(c(=NC(=O)c4cnc(N)nc4)nc12)CCN3 + CNC(=O)c1ccc(Nc2nc(OC3CCCC3)c3c(-c4ccc5nc(C)oc5c4)c[nH]c3n2)c(OC)c1" obs_value="> 8.50"
compound="Cn1ncnc1[C@H]1c2n[nH]c(=O)c3cc(F)cc(c23)N[C@@H]1c1ccc(F)cc1 + CNC(=O)c1ccc(Nc2nc(OC3CCCC3)c3c(-c4ccc5nc(C)oc5c4)c[nH]c3n2)c(OC)c1" obs_value="> 9.50"
compound="CC1(C)CCC(CN2CCN(c3ccc(C(=O)NS(=O)(=O)c4ccc(NCC5CCOCC5)c([N+](=O)[O-])c4)c(Oc4cnc5[nH]ccc5c4)c3)CC2)=C(c2ccc(Cl)cc2)C1 + CNC(=O)c1ccc(Nc2nc(OC3CCCC3)c3c(-c4ccc5nc(C)oc5c4)c[nH]c3n2)c(OC)c1" obs_value="> 7.50"
compound="O=c1[nH]cc(F)c(=O)[nH]1 + CNC(=O)c1ccc(Nc2nc(OC3CCCC3)c3c(-c4ccc5nc(C)oc5c4)c[nH]c3n2)c(OC)c1" obs_value="> 7.50"
